# protocol: qHTS assay to identify small molecule antagonists of the androgen receptor (AR) signaling pathway - cell viability counter screen (AID 743033; also: % is scaled to controls: 0 for no effect and ±100 for the full control effect; nearly all actives have a fitted effect of over 45% in size)
# conditions.used: AR-bla HEK293 viability, CellTiter-Glo luminescence, 16 h; series mostly up to 58.5 µM
# Excerpt: National Center for Advancing Translational Sciences [NCATS] NIH Chemical Genomics Center [NCGC] U.S. Environmental Protection Agency [EPA] National Institutes of Environmental Health Sciences [NIEHS] National Toxicology Program [NTP] U.S. Food and Drug Administration [FDA] Androgen receptor (AR), a nuclear hormone receptor, plays a critical role in AR-dependent prostate cancer and other androgen related diseases. […]
Records with an inconclusive call do not appear. Calls of active or inactive are those of the source. Calls follow the shape of the dose curve; as a rule, active = well fitted cell-killing curve with a large enough effect in the repeat runs; inconclusive = weak or mixed curves; inactive = no such curve, though single readings can be large or run the other way.
reported.endpoint: outcome

These solved cases illustrate the format of a correct answer.
1. OC[C@H]1O[C@@H](O[C@@H]2[C@@H](CO)O[C@](O)(CO)[C@H]2O)[C@H](O)[C@@H](O)[C@H]1O | inactive
2. CCCCOC(=O)C(C)O (stereo unspecified) | inactive
3. O=C(Cn1ccnc1[N+](=O)[O-])NCc1ccccc1 | inactive
4. C=CCN1C[C@H](C(=O)N(CCCN(C)C)C(=O)NCC)C[C@@H]2c3cccc4[nH]cc(c34)C[C@H]21 | inactive
5. CCC(C)C(C)=O (stereo unspecified) | inactive

Exercise: Answer with reported outcome of `CC1=NN(c2ccc(S(=O)(=O)O)cc2)C(=O)C1`
Solution: inactive

###

# protocol: qHTS RealTime-Glo MT Cell Viability Assay in HepG2 cells - 16 hour (AID 1224885); also: % is scaled to controls: 0 for no effect and ±100 for the full control effect; nearly all actives have a fitted effect of over 50% in size
# conditions.used: RealTime-Glo luminescence; series mostly up to 76.8 µM
Inconclusive results are not listed. The source made the active and inactive calls. Calls follow the shape of the dose curve; as a rule, active = well fitted cell-killing curve with a large enough effect in the repeat runs; inconclusive = weak or mixed curves; inactive = flat fitted curve, though single readings scatter.
reported.endpoint: activity change, negative = cytotoxic

These solved cases illustrate the format of a correct answer.
1. COC(C)(OC)OC | inactive
2. CC(=O)OC1CCCCC1C(C)(C)C (stereo not drawn) | inactive
3. OC[C@@H](O)C(O)[C@@H](O)CO (stereo partly drawn) | inactive
4. CCOC(=O)CC1(C)OCC(C)O1 (stereo not drawn) | inactive
5. OCCN1CCOCC1 | inactive
6. CC(C)OC(=O)OCOP(=O)(CO[C@H](C)Cn1cnc2c(N)ncnc21)OCOC(=O)OC(C)C | inactive
7. Cc1cc(-c2ccccc2)nnc1NCCN1CCOCC1 | inactive
8. O=C1c2ccccc2C(=O)c2cc(Cl)ccc21 | 1.7% [at 6.97 µM] (inactive)
9. C=C(C)c1cccc(C(C)(C)N=C=O)c1 | inactive
10. CC(=O)C(C)O (stereo not drawn) | inactive

Exercise: Answer with reported activity change, negative = cytotoxic of `N[C@@H](Cc1ccc(O)cc1)C(=O)O`
Solution: 0.618% [at 6.97 µM] (inactive)

Exercise: Answer with reported activity change, negative = cytotoxic of `OC[C@H]1O[C@@H](O[C@@H]2[C@@H](CO)O[C@](O)(CO)[C@H]2O)[C@H](O)[C@@H](O)[C@H]1O`
Solution: inactive

Exercise: Answer with reported activity change, negative = cytotoxic of OCC(O)CN1CCN(c2ccccc2)CC1 (stereo not drawn)
Solution: inactive

###

# tgt: Voltage-gated inwardly rectifying potassium channel KCNH2 (Homo sapiens) (UniProt Q12809)
# Sequence (Q12809 whole entry, looked up): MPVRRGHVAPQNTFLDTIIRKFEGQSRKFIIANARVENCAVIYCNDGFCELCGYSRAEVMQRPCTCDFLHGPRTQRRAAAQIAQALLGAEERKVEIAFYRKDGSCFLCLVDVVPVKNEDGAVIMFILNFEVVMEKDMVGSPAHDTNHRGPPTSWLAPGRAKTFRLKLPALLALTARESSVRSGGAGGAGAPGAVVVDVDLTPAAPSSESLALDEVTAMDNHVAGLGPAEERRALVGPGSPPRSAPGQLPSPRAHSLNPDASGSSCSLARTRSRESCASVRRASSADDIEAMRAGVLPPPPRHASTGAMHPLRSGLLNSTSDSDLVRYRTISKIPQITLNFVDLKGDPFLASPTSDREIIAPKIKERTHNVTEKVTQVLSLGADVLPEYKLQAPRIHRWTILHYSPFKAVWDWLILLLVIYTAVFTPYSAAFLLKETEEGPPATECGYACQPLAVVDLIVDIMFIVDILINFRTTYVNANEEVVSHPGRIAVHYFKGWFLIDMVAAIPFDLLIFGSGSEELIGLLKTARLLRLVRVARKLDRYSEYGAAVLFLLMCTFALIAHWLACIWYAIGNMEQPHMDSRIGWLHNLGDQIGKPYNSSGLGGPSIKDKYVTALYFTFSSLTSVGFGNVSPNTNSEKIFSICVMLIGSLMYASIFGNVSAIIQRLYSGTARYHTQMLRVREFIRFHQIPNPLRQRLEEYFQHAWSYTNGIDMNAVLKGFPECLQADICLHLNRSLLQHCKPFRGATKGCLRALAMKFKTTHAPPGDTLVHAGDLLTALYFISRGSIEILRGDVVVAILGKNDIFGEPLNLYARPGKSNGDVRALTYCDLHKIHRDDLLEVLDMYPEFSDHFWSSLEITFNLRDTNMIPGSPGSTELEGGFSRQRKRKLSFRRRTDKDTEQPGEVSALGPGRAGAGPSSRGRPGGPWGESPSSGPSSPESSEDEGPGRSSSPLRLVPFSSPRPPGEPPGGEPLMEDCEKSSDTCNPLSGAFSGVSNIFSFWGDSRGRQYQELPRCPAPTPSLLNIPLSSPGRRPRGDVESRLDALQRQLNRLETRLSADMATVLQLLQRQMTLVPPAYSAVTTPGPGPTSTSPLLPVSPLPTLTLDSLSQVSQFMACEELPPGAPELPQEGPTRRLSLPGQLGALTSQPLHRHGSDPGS
# protocol: Human Ether-a-go-go-Related Gene (hERG) channel small molecule antagonists: fluorescence cell-based qHTS assay (AID 1671200);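 also: hERG-expressing U2OS cells given a thallium stimulus after FluxOR II dye loading; % is scaled to controls: 0 for no effect and ±100 for the full control effect; nearly all actives have a fitted effect of over 50% in size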
# conditions.used: hERG-U2OS cells, FluxOR thallium flux fluorescence; series mostly up to 76.8 µM
Results filed as inconclusive are left out. Calls of active or inactive are those of the source. Calls come from the whole dose curve; as a rule, active = well fitted inhibition curve with a large enough effect in the repeat runs; inconclusive = weak or mixed curves; inactive = flat fitted curve, though single readings scatter.
reported.endpoint: activity change, negative = inhibition

1. CC(O)COC(C)(C)C (centres undefined) | inactive
2. CC12CCC(C1)C(C)(C)C2O (centres undefined) | inactive
3. CCCCCCCCCCCCCCCCCC#N | inactive
4. CC(S)C(C)S (centres undefined) | inactive
5. O=C=NCC1CCCC(CN=C=O)C1 (centres undefined) | inactive
6. CN(C)CCOC(=O)C(c1ccccc1)C1(O)CCCC1 (centres undefined) | inactive
7. COc1cc2c(cc1OC)CN(C(=O)[C@H](C)N[C@@H](CCc1ccccc1)C(=O)O)[C@H](C(=O)O)C2 | inactive
8. CCCC(=O)OCCC(C)CCC=C(C)C (centres undefined) | inactive
9. O=C(O)CNC(=O)CNC(=O)CNC(=O)CSC(=O)c1ccccc1 | inactive
10. Cc1ccc(C(C)NC(=O)[C@@H](NC(=O)OC(C)C)C(C)C)cc1 (some centres undefined) | inactive

Exercise: Lab note: Voltage-gated inwardly rectifying potassium channel KCNH2 (Homo sapiens) (UniProt Q12809) assay, enter activity change, negative = inhibition for `CC1=C(C(=O)O)N2C(=O)[C@@H](NC(=O)[C@H](N)C3=CCC=CC3)[C@H]2SC1` here
Solution: inactive

Exercise: Lab note: Voltage-gated inwardly rectifying potassium channel KCNH2 (Homo sapiens) (UniProt Q12809) assay, enter activity change, negative = inhibition for `CC(=O)c1cc(C)oc1C` here
Solution: inactive

Exercise: Lab note: Voltage-gated inwardly rectifying potassium channel KCNH2 (Homo sapiens) (UniProt Q12809) assay, enter activity change, negative = inhibition for `COc1c2occc2c(OC)c2c(=O)cc(C)oc12` here
Solution: inactive

Exercise: Lab note: Voltage-gated inwardly rectifying potassium channel KCNH2 (Homo sapiens) (UniProt Q12809) assay, enter activity change, negative = inhibition for `O=C[O][Al]([O]C=O)[O]C=O` here
Solution: inactive

Measured values drawn from PubChem BioAssay (Tox21) for this set.
